Measured Ratio Ki of individual entries
# Target system: Monoamine transporters; serotonin & dopamine (Homo sapiens) (UniProt P31645+Q01959)
# Sequence (P31645 whole entry, looked up): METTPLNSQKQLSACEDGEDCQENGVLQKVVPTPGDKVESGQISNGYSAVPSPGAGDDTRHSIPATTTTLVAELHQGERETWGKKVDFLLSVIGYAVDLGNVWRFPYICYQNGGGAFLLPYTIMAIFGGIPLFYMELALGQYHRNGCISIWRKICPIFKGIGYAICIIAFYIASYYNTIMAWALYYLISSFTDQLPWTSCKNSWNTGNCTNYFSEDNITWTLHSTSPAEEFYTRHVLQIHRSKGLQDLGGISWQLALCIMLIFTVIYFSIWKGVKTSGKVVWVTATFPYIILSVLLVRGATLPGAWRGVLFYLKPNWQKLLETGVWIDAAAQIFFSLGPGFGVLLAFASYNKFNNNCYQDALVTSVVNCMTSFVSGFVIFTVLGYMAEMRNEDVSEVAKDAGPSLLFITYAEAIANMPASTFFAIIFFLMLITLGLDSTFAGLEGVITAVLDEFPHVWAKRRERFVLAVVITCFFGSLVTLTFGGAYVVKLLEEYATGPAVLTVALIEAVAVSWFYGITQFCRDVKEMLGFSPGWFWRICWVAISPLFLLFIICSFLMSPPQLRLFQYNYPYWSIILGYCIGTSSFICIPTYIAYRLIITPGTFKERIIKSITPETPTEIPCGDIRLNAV
# Sequence (Q01959 whole entry, looked up): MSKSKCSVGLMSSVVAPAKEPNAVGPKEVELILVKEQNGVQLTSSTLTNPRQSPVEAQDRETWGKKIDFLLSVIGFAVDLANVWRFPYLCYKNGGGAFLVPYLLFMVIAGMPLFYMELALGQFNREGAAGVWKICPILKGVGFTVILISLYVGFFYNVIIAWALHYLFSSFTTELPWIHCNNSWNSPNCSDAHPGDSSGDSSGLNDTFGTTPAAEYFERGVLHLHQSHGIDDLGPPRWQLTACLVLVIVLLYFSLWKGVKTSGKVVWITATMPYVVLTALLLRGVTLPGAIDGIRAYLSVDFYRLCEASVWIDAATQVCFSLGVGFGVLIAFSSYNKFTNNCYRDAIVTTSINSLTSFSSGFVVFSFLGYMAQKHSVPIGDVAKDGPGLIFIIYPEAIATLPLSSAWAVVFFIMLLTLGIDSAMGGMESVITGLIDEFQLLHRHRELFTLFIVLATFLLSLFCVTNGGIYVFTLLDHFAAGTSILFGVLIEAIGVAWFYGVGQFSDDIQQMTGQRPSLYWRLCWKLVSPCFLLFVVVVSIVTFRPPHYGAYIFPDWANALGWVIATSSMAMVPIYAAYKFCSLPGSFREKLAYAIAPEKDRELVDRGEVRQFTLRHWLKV
# Assay: Selectivity for SERT over DAT
# Format: protein assay
# output: bare number, no unit

Worked cases, answers included:
O[C@@H](CCN1CCC(CCOC(c2ccc(F)cc2)c2ccc(F)cc2)CC1)c1ccccc1    26
O[C@@H](Cc1ccccc1)CN1CCC(CCOC(c2ccc(F)cc2)c2ccc(F)cc2)CC1    205
Fc1ccc(C(OCCC2CCN(C[C@H]3C[C@@H]3c3ccccc3)CC2)c2ccc(F)cc2)cc1    97

I'd like to know its Ratio Ki. The compound in question is O[C@@H](CCc1ccccc1)CN1CCC(CCOC(c2ccc(F)cc2)c2ccc(F)cc2)CC1
24

I'd like to know its Ratio Ki. The compound in question is C[C@@H](Cc1ccccc1)CN1CCC(CCOC(c2ccc(F)cc2)c2ccc(F)cc2)CC1
13

I'd like to know its Ratio Ki. The compound in question is O[C@@H](CCN1CCC(CCOC(c2ccccc2)c2ccccc2)CC1)c1ccccc1
107

I'd like to know its Ratio Ki. The compound in question is O[C@H](Cc1ccccc1)CN1CCC(CCOC(c2ccc(F)cc2)c2ccc(F)cc2)CC1
18

I'd like to know its Ratio Ki. The compound in question is N[C@H](Cc1ccccc1)CN1CCC(CCOC(c2ccc(F)cc2)c2ccc(F)cc2)CC1
6
